The values you see were collected from the RNAGym collection of RNA variant scans (doi:10.1101/gr.219683.116).

Listing: exon inclusion enrichment index of selected variants
B1: mRNA-splicing (parent)
chain: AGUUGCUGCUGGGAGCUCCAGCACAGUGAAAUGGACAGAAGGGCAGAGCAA

variants of: B1; test: exon inclusion enrichment index; higher = more inclusion; WT1 exon 5 minigene, HEK293
measured_parameter: exon inclusion enrichment index

[[record]]
mutation_key = "G5U G8U C9U C44G A45C"
measured_parameter = "exon inclusion enrichment index"
reading = 0.346

[[record]]
mutation_key = "G5U G8U C9U G34C"
measured_parameter = "exon inclusion enrichment index"
reading = 0.0201

[[record]]
mutation_key = "U3A U4G G5C C6G U7C U10C"
measured_parameter = "exon inclusion enrichment index"
reading = 1.31

[[record]]
mutation_key = "G8C C9A"
measured_parameter = "exon inclusion enrichment index"
reading = 0.365

[[record]]
mutation_key = "G5C C6U G8U C9G U10C"
measured_parameter = "exon inclusion enrichment index"
reading = 0.68

[[record]]
mutation_key = "G5U G8U C9U U10C G11A"
measured_parameter = "exon inclusion enrichment index"
reading = 0.133

[[record]]
mutation_key = "G5A C6G U7G C9A G21A C22U"
measured_parameter = "exon inclusion enrichment index"
reading = 0.00087

[[record]]
mutation_key = "G5A U7C G8A U10C A25G G26A"
measured_parameter = "exon inclusion enrichment index"
reading = 4.73

[[record]]
mutation_key = "G5U G8U C9U A29C A30G"
measured_parameter = "exon inclusion enrichment index"
reading = 0.414

[[record]]
mutation_key = "G5A C6U U7A G8U C9A G28A A29U"
measured_parameter = "exon inclusion enrichment index"
reading = 0.00845

[[record]]
mutation_key = "G5C C6G U7C U10C A37G G38U"
measured_parameter = "exon inclusion enrichment index"
reading = 1.81

[[record]]
mutation_key = "G34A A35C"
measured_parameter = "exon inclusion enrichment index"
reading = 0.0806

[[record]]
mutation_key = "C6A U7A C9A U10A G12U G13C"
measured_parameter = "exon inclusion enrichment index"
reading = 1.06

[[record]]
mutation_key = "G5A C6G U7G C9A C36A A37U"
measured_parameter = "exon inclusion enrichment index"
reading = 0.00282

[[record]]
mutation_key = "U3G U4A G5C C6A U7C G8A U10A"
measured_parameter = "exon inclusion enrichment index"
reading = 0.0657

[[record]]
mutation_key = "G5A C6U U7C G8A U10C"
measured_parameter = "exon inclusion enrichment index"
reading = 2.02

[[record]]
mutation_key = "G5C C6U G8C C9U U10C A14U G15U"
measured_parameter = "exon inclusion enrichment index"
reading = 0.556

[[record]]
mutation_key = "G5C C6G U7C U10C A47G G48C"
measured_parameter = "exon inclusion enrichment index"
reading = 2.32

[[record]]
mutation_key = "G5U G8U C9U A35C C36G"
measured_parameter = "exon inclusion enrichment index"
reading = 0.125

[[record]]
mutation_key = "G5U G8U C9U U17G C18U"
measured_parameter = "exon inclusion enrichment index"
reading = 0.0929

[[record]]
mutation_key = "G5U G8U C9U A20C"
measured_parameter = "exon inclusion enrichment index"
reading = 0.124

[[record]]
mutation_key = "G5A C6G U7G C9A G11C G12C"
measured_parameter = "exon inclusion enrichment index"
reading = 0.00959

[[record]]
mutation_key = "G5A C6G U7G C9A G42C"
measured_parameter = "exon inclusion enrichment index"
reading = 0.0041

[[record]]
mutation_key = "C6A U7A C9A U10A G21A"
measured_parameter = "exon inclusion enrichment index"
reading = 0.506

[[record]]
mutation_key = "G5C C6A U7C G8A U10A U27C"
measured_parameter = "exon inclusion enrichment index"
reading = 0.417

[[record]]
mutation_key = "G5U G8U C9U G12C"
measured_parameter = "exon inclusion enrichment index"
reading = 0.0449

[[record]]
mutation_key = "G5C C6G U7C U10C C22U A23G"
measured_parameter = "exon inclusion enrichment index"
reading = 3.6

[[record]]
mutation_key = "G5A U7C G8A U10C U17C C18G"
measured_parameter = "exon inclusion enrichment index"
reading = 2.38

[[record]]
mutation_key = "G5U G8U C9U A23G"
measured_parameter = "exon inclusion enrichment index"
reading = 0.252

[[record]]
mutation_key = "C22A A23U"
measured_parameter = "exon inclusion enrichment index"
reading = 1.56

[[record]]
mutation_key = "A14U G15C"
measured_parameter = "exon inclusion enrichment index"
reading = 0.0264

[[record]]
mutation_key = "C6A U7C C9A U10C G33U G34A"
measured_parameter = "exon inclusion enrichment index"
reading = 0.907

[[record]]
mutation_key = "G5A C6G U7G C9A C19A A20G"
measured_parameter = "exon inclusion enrichment index"
reading = 0.00156

[[record]]
mutation_key = "G5A U7C G8A U10C G26C U27A"
measured_parameter = "exon inclusion enrichment index"
reading = 2.48

[[record]]
mutation_key = "G5A C6G U7G C9A C22A"
measured_parameter = "exon inclusion enrichment index"
reading = 0.00351

[[record]]
mutation_key = "C6G U7C"
measured_parameter = "exon inclusion enrichment index"
reading = 0.331

[[record]]
mutation_key = "G5A U7C G8A U10C U17G C18G"
measured_parameter = "exon inclusion enrichment index"
reading = 1.96

[[record]]
mutation_key = "G5C C6A U7C G8A U10A C16G"
measured_parameter = "exon inclusion enrichment index"
reading = 0.043

[[record]]
mutation_key = "G5U G8U C9U C36G A37C"
measured_parameter = "exon inclusion enrichment index"
reading = 0.0336

[[record]]
mutation_key = "G5C C6G G8U C9U"
measured_parameter = "exon inclusion enrichment index"
reading = 1.08

[[record]]
mutation_key = "G5C C6G U7C U10C G11A"
measured_parameter = "exon inclusion enrichment index"
reading = 2.79

[[record]]
mutation_key = "U3A U4A G5A C6U U7A G8U C9A"
measured_parameter = "exon inclusion enrichment index"
reading = 0.0823

[[record]]
mutation_key = "G5C C6U G8C C9U U10C C44A A45C"
measured_parameter = "exon inclusion enrichment index"
reading = 3.61

[[record]]
mutation_key = "G5A U7C G8A U10C A23G C24G"
measured_parameter = "exon inclusion enrichment index"
reading = 3.83

[[record]]
mutation_key = "G5A U7C G8A U10C G42C G43U"
measured_parameter = "exon inclusion enrichment index"
reading = 3.18

[[record]]
mutation_key = "G5C C6A U7C G8A U10A G34C A35G"
measured_parameter = "exon inclusion enrichment index"
reading = 0.0658

